- experimental_system: UniProt:Q1A7N1
- method_summary: In Vitro Canine TRPM8 Functional Assay (Ca2+ fluorescence, icilin activation)
- Type: cell-based
- details: HEK293 cells stably expressing canine TRPM8; icilin activation; eight-point dose-response; read-out: IC50
assay_endpoint: IC50 (nM)

mol_smiles	measurement_units	IC50
CCCCN(c1sc2ccccc2c1C)S(=O)(=O)c1ccc(-c2noc(=O)[nH]2)cc1	nM	10.8
CNc1ccc(S(=O)(=O)N(CCC2CC2)c2sc3ccccc3c2Br)cc1Br	nM	7.2
CC(=O)c1c(N(Cc2ccc(F)c(C(F)(F)F)c2)S(=O)(=O)c2ccccc2)sc2ccccc12	nM	10
Cc1c(N(CCC(F)(F)F)S(=O)(=O)c2ccccc2)sc2ccccc12	nM	7.3
Cc1c(N(CCC(F)(F)F)S(=O)(=O)c2ccc(C(=O)[O-])cc2)sc2ccccc12.[Na+]	nM	10

I. O=C(O)c1ccc(S(=O)(=O)N(CCC2CC2)c2sc3ccccc3c2Br)c(F)c1
II. Cc1c(N(CCc2ccccc2)S(=O)(=O)c2ccccc2)sc2ccccc12
Between the entries labeled I and II , whose measured IC50 is lower? Selection: enter the item's label.
I

====

- experimental_system: canine TRPM8 (Canis lupus familiaris, UniProt Q1A7N1)
- Sequence (Q1A7N1 1-1104): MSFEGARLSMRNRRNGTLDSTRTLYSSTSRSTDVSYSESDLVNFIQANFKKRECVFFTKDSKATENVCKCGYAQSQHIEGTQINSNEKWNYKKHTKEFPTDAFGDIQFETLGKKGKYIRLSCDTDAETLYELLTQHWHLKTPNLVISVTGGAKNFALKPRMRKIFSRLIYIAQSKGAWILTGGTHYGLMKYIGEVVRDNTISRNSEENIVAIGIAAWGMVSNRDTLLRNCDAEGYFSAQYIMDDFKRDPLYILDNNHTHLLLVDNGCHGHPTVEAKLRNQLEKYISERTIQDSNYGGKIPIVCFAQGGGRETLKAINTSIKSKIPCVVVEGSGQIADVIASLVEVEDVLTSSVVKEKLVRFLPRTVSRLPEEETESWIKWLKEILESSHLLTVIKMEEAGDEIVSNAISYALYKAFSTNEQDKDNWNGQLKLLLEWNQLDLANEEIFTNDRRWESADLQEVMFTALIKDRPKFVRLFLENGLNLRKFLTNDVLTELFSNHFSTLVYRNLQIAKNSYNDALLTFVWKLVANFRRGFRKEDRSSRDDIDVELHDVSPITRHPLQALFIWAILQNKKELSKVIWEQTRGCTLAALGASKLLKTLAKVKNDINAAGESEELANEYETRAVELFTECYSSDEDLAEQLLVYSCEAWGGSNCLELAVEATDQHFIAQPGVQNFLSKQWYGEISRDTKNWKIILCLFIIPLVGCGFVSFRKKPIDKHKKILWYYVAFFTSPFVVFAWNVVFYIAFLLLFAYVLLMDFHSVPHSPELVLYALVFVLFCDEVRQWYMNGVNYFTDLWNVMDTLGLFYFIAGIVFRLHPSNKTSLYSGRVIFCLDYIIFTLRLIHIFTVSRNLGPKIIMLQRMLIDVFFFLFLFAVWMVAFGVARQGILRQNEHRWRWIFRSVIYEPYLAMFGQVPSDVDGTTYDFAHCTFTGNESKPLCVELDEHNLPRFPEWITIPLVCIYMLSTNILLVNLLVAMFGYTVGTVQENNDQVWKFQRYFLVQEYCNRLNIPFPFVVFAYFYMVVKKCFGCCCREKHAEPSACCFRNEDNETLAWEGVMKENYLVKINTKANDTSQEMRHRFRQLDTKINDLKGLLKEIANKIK
- method_summary: In Vitro Canine TRPM8 Functional Assay (Ca2+ fluorescence, icilin activation)
- Type: cell-based
- details: compound at 0.2 μM; canine TRPM8, icilin activation; read-out: % Inh @ 0.2
assay_endpoint: inhibition at 0.2 µM (%)

The following compounds have reported results that may help.
compound	experimental_system	assay_endpoint	measurement_units	test_result
CN(C)S(=O)(=O)N(CCC(F)(F)F)c1sc2ccccc2c1Br	canine TRPM8 (Canis lupus familiaris, UniProt Q1A7N1)	inhibition at 0.2 µM	%	94
O=S(=O)(c1cccnc1)N(Cc1ccc(C(F)(F)F)c(F)c1)c1sc2ccccc2c1Br	canine TRPM8 (Canis lupus familiaris, UniProt Q1A7N1)	inhibition at 0.2 µM	%	99

A. CCCCN(c1sc2ccccc2c1C(C)=O)S(=O)(=O)c1ccc(C(=O)OC)cc1
B. CCS(=O)(=O)N(CCN1CCOCC1)c1sc2ccccc2c1C(C)O (centres unmarked)
Which entry shows the lesser value of inhibition at 0.2 µM here, A or B ? Let me know the label of the one you choose.
B

====

- experimental_system: canine TRPM8 (Canis lupus familiaris, UniProt Q1A7N1)
- method_summary: In Vitro Canine TRPM8 Functional Assay (Ca2+ fluorescence, icilin activation)
- Type: cell-based
- details: compound at 0.2 μM; canine TRPM8, icilin activation; read-out: % Inh @ 0.2
assay_endpoint: inhibition at 0.2 µM (%)

mol_smiles	experimental_system	inhibition at 0.2 µM / %
COC(=O)[C@H](C)CN(c1sc2ccccc2c1C)S(=O)(=O)c1ccccc1	canine TRPM8 (Canis lupus familiaris, UniProt Q1A7N1)	98
CNS(=O)(=O)N(Cc1ccc(F)c(C(F)(F)F)c1)c1sc2ccccc2c1C	canine TRPM8 (Canis lupus familiaris, UniProt Q1A7N1)	102
Cc1c(N(CCCC(F)(F)F)S(=O)(=O)c2ccccc2)sc2ccccc12	canine TRPM8 (Canis lupus familiaris, UniProt Q1A7N1)	101
Cc1c(N(Cc2ccc(F)c(C(F)(F)F)c2)S(=O)(=O)c2ccc(Cl)nc2)sc2ccccc12	canine TRPM8 (Canis lupus familiaris, UniProt Q1A7N1)	95
CNc1ccc(S(=O)(=O)N(CCC2CC2)c2sc3ccccc3c2Cl)cc1	canine TRPM8 (Canis lupus familiaris, UniProt Q1A7N1)	101
COC(=O)c1cccc(S(=O)(=O)N(Cc2ccc(F)c(C(F)(F)F)c2)c2sc3ccccc3c2Br)c1	canine TRPM8 (Canis lupus familiaris, UniProt Q1A7N1)	101
Cc1c(N(CCC(F)(F)F)S(=O)(=O)c2ccc(-c3nsc(=O)[nH]3)cc2)sc2ccccc12	canine TRPM8 (Canis lupus familiaris, UniProt Q1A7N1)	104
CSCCN(c1sc2ccccc2c1Br)S(=O)(=O)c1ccccc1	canine TRPM8 (Canis lupus familiaris, UniProt Q1A7N1)	86
Cc1c(N(CCN2CCOCC2)S(=O)(=O)c2ccccc2)sc2ccccc12	canine TRPM8 (Canis lupus familiaris, UniProt Q1A7N1)	97
CCN(CC)c1ccc(S(=O)(=O)N(CCC2CC2)c2sc3ccccc3c2C)cc1	canine TRPM8 (Canis lupus familiaris, UniProt Q1A7N1)	90
CN(C)c1ccc(S(=O)(=O)N(CCC2CC2)c2cc3ccccc3s2)cc1	canine TRPM8 (Canis lupus familiaris, UniProt Q1A7N1)	86
Cc1c(N(Cc2cc(C(F)(F)F)ccc2F)S(=O)(=O)c2ccc(C(=O)O)cc2)sc2ccccc12	canine TRPM8 (Canis lupus familiaris, UniProt Q1A7N1)	102
O=C(O)c1ccc(S(=O)(=O)N(CC2CCCCC2)c2sc3ccccc3c2Br)cc1	canine TRPM8 (Canis lupus familiaris, UniProt Q1A7N1)	97
Cc1c(N(Cc2ccc(OC(F)(F)F)cc2)S(=O)(=O)c2ccc(N3CCOCC3)nc2)sc2ccccc12	canine TRPM8 (Canis lupus familiaris, UniProt Q1A7N1)	101

====

- experimental_system: UniProtKB Q1A7N1
- method_summary: In Vitro Canine TRPM8 Functional Assay (Ca2+ fluorescence, icilin activation)
- Type: cell-based
- details: 0.2 μM compound; HEK293 cells stably expressing canine TRPM8, icilin activation; read-out: % Inh @ 0.2
assay_endpoint: inhibition at 0.2 µM (%)

compound	test_result
Cc1c(N(Cc2ccc(OC(F)(F)F)cc2)S(=O)(=O)c2ccc(N(C)C)cc2)sc2ccccc12 [Compound 799]	102
O=S(=O)(c1ccccc1)N(CCCF)c1cc2ccccc2s1 [Compound 817]	80
COC(=O)c1ccc(S(=O)(=O)N(CCCF)c2sc3ccccc3c2C)cc1 [Compound 823]	102
Cc1c(N(CCF)S(=O)(=O)c2ccccc2)sc2ccccc12 [Compound 818]	92
COCc1c(N(CCCF)S(=O)(=O)c2ccccc2)sc2ccccc12 [Compound 832]	76

====

- experimental_system: canine TRPM8 (Canis lupus familiaris)
- method_summary: In Vitro Canine TRPM8 Functional Assay (Ca2+ fluorescence, icilin activation)
- Type: cell-based
- details: compound at 0.2 μM; canine TRPM8, icilin activation; read-out: % Inh @ 0.2
assay_endpoint: inhibition at 0.2 µM (%)

compound	test_result
Cc1c(N(Cc2ccc(F)c(C(F)(F)F)c2)S(C)(=O)=O)sc2ccccc12 [Compound 368]	96

I. CC1=C(N(CCCC(F)(F)F)S(=O)(=O)c2ccccc2)S(=O)(=O)c2ccccc21 [Compound 620]
II. CNC1=C(N(Cc2ccc(F)c(C(F)(F)F)c2)S(=O)(=O)c2ccccc2)S(=O)(=O)c2ccccc21 [Compound 648]
Endpoint returns whichever of I and II has the numerically higher inhibition at 0.2 µM. Refer to your chosen item by its label in the answer.
I
(I: 101%, II: 62%)

A. CCS(=O)(=O)N(CCSC)c1sc2ccccc2c1C [Compound 108]
B. COC(=O)c1ccc(S(=O)(=O)N(CCC2CC2)c2sc3ccccc3c2C)cc1 [Compound 628]
// which entry has the larger inhibition at 0.2 µM value, A or B ? Please respond with the label that marks your chosen entry.
B
(B: 103%, A: 71%)

====

- experimental_system: UniProt Q1A7N1
- method_summary: In Vitro Canine TRPM8 Functional Assay (Ca2+ fluorescence, icilin activation)
- Assay type: cell-based
- details: compound at 0.2 μM; canine TRPM8, icilin activation; read-out: % Inh @ 0.2
assay_endpoint: inhibition at 0.2 µM (%)

molecule	measurement_units	inhibition at 0.2 µM
CC(=O)c1ccc(S(=O)(=O)N(CCCC(F)(F)F)c2sc3ccccc3c2C)cc1	%	97
O=c1[nH]c(-c2ccc(S(=O)(=O)N(CCCCC(F)(F)F)c3cc4ccccc4s3)cc2)ns1	%	74.5
CC(O)c1c(N(Cc2ccc(F)c(C(F)(F)F)c2)S(C)(=O)=O)sc2ccccc12 (centres unmarked)	%	100
COC(=O)CCS(=O)(=O)N(Cc1ccc(OC(F)(F)F)cc1)c1sc2ccccc2c1C	%	101
CCCCN(c1cc2ccccc2s1)S(=O)(=O)c1ccc(N(C)C)cc1	%	92
CCCCN(c1sc2ccccc2c1Br)S(=O)(=O)c1ccc(-c2nnn[nH]2)cc1	%	93
COCCN(c1sc2ccccc2c1C)S(=O)(=O)c1ccccc1	%	99
CNS(=O)(=O)N(Cc1ccc(F)c(C(F)(F)F)c1)c1sc2ccccc2c1Cl	%	93

Numbers sourced from patent US9434711B2.
